Give optical density for every item shown.
measured on: T1, Goat anti-Human Kappa
T1 construct: Positive control; also called biotinylated goat anti-human kappa light chain
assay notes: ELISA; positive control; note: test concentration or dose not given here
Give bare numbers, in OD.

Look at this binder and give its reported optical density. 365_C01 (antibody, V domains shown, VH/VL only) VH: EVQLLESGGGLVQPGGSLRLSCAASGFTFDSYGMNWVRQAPGKGLEWVSSINYNSGYKSYADSVKGRFTISRDNSKNTLYLQMNSLRAEDTAVYYCARSANWHDTHLDYWGQGTLVTVSS VL: DIQMTQSPSSLSASVGDRVTITCRASQSIVSYLNWYQQKPGKAPKLVIYAVTSRASGVPSRFSGSGSGTDFTLTISSLQPEDFATYYCQQSYESPLTFGGGTKVEIK
3.63

Now consider 365_E07 (antibody, V domains shown, VH/VL only) VH: EVQLLESGGGLVQPGGSLRLSCAASGFTFDSYGMHWVRQAPGKGLEWVSGINYNSGYTSYADSVKGRFTISRDNSKNTLYLQMNSLRAEDTAVYYCAKSANWHDTHLDYWGQGTLVTVSS VL: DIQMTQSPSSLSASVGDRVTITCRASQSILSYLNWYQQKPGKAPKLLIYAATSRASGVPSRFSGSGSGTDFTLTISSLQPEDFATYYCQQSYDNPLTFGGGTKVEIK .
3.51

Please examine the following record next.
Look at this binder and give its reported optical density. 367_B03 (antibody, V domains shown, VH/VL only) VH: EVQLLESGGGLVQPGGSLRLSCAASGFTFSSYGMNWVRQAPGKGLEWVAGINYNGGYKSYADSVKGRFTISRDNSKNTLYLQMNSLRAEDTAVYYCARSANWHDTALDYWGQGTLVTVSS VL: DIQMTQSPSSLSASVGDRVTITCRASQSILTYLNWYQQKPGKAPKLLIYAATSLASGVPSRFSGSGSGTDFTLTISSLQPEDFATYYCQQSYNLPLTFGGGTKVEIK
3.44
